System: E18 rat cortical neuron-glia co-culture
Test: myelination (MBP fiber length per Olig2+ nucleus), % of 1 µM DAPT response (DMSO = 0) (% of DAPT); higher = more myelination, active = 50 or more
Details: 5 µM; treatment time: 8 days (DIV5-DIV13)
The categories you may choose from are active, inactive

Please review the following examples before continuing.
molecule=NCC(=O)CCC(=O)O assignedlabel=inactive
molecule="CS(N)(=O)=O [Methanesulfonamide]" assignedlabel=inactive
molecule="COC(=O)CCc1ccc(OCC(O)CNC(C)C)cc1 (stereo not drawn)" assignedlabel=inactive
molecule="CC(C(=O)O)c1ccc(-c2ccccc2)c(F)c1 (stereo not drawn)" assignedlabel=inactive
molecule="CCOC(=O)OC(C)OC1=C(C(=O)Nc2ccccn2)N(C)S(=O)(=O)c2ccccc21 (stereo not drawn)" assignedlabel=inactive
molecule=Clc1ccc2c(c1)CCc1cccnc1C2=C1CCNCC1 assignedlabel=inactive
molecule="CC(C)[N+]1(C)[C@@H]2CC[C@H]1C[C@@H](OC(=O)C(CO)c1ccccc1)C2 (stereo partly drawn)" assignedlabel=inactive
molecule=Brc1c(NC2=NCCN2)ccc2nccnc12 assignedlabel=inactive

Moving on to the next molecule.
*Q* Recorded call for CN(C)CCCC1(c2ccc(F)cc2)OCc2cc(C#N)ccc21 (stereo not drawn) ?
*A* inactive
